experiment summary: Example 1: stability of bilberry extract anthocyanosides, 4 hours at 37° C., pH 7.0, with/without DHLA or GSH (HPLC)
Assay type: physicochemical
recorded conditions: unprotected, pH 7.0, 37° C., 4 hours
hey, just use 1 if measured % left, Blank (4 hours) is less than 40%, otherwise -1

Some entries whose results are on file:
OC[C@H]1O[C@@H](Oc2cc3c(O)cc(O)cc3[o+]c2-c2ccc(O)c(O)c2)[C@H](O)[C@@H](O)[C@@H]1O [Cn-3O-Glc, Cyanidin 3-o-glucoside] | -1
COc1cc(-c2[o+]c3cc(O)cc(O)c3cc2O[C@@H]2OC[C@H](O)[C@H](O)[C@H]2O)cc(O)c1O.[Cl-] [Pt-3O-Ara, Petunidin 3-o-arabinoside] | 1
OC[C@H]1O[C@@H](Oc2cc3c(O)cc(O)cc3[o+]c2-c2cc(O)c(O)c(O)c2)[C@H](O)[C@@H](O)[C@@H]1O [Dp-3O-Glc, Delphinidin 3-o-glucoside] | 1

[in] For this molecule, is % left, Blank (4 hours) lower than 40%? COc1cc(-c2[o+]c3cc(O)cc(O)c3cc2O[C@@H]2O[C@H](CO)[C@H](O)[C@H](O)[C@H]2O)cc(OC)c1O [Mv-3O-Gal, Malvidin 3-o-galactoside]
[out] 1

====

The entries below come with measured Peak Area values attached.
experiment summary: Example 5: degradation over time of black currant anthocyanosides at 37° C., pH 7.0, with/without GSH (HPLC)
Type: physicochemical
recorded conditions: GSH protected sample (20 mg), pH 7.0, 37° C., 1:00 h
Hey, just send me the number, nothing else.

Sample answers from the record:
OC[C@H]1O[C@@H](Oc2cc3c(O)cc(O)cc3[o+]c2-c2ccc(O)c(O)c2)[C@H](O)[C@@H](O)[C@@H]1O [Cn-3O-Glc, Cyanidin 3-o-glucoside] | 423.8
C[C@@H]1O[C@@H](OC[C@H]2O[C@@H](Oc3cc4c(O)cc(O)cc4[o+]c3-c3ccc(O)c(O)c3)[C@H](O)[C@@H](O)[C@@H]2O)[C@H](O)[C@H](O)[C@H]1O [Cn-3-O-Rut, Cyanidin-3-O-rutinoside] | 3015.3
C[C@@H]1O[C@@H](OC[C@H]2O[C@@H](Oc3cc4c(O)cc(O)cc4[o+]c3-c3cc(O)c(O)c(O)c3)[C@H](O)[C@@H](O)[C@@H]2O)[C@H](O)[C@H](O)[C@H]1O [Dp-3-O-Rut, Delphinidin-3-O-rutinoside] | 4273.1

Next compound, please.
[in] For the compound OC[C@H]1O[C@@H](Oc2cc3c(O)cc(O)cc3[o+]c2-c2cc(O)c(O)c(O)c2)[C@H](O)[C@@H](O)[C@@H]1O [Dp-3O-Glc, Delphinidin 3-o-glucoside] , give its measured Peak Area value.
[out] 1219.0

====

experiment summary: Example 5: degradation over time of black currant anthocyanosides at 37° C., pH 7.0, with/without GSH (HPLC)
Format: physicochemical
recorded conditions: Blank sample, pH 7.0, 37° C., 0:15 h
Entries and their Peak Area
No unit in the answer, only the number.

// below: answered compounds
C[C@@H]1O[C@@H](OC[C@H]2O[C@@H](Oc3cc4c(O)cc(O)cc4[o+]c3-c3ccc(O)c(O)c3)[C@H](O)[C@@H](O)[C@@H]2O)[C@H](O)[C@H](O)[C@H]1O [Cn-3-O-Rut, Cyanidin-3-O-rutinoside] | 2707.4
OC[C@H]1O[C@@H](Oc2cc3c(O)cc(O)cc3[o+]c2-c2ccc(O)c(O)c2)[C@H](O)[C@@H](O)[C@@H]1O [Cn-3O-Glc, Cyanidin 3-o-glucoside] | 368.9

[in] Fill in reported Peak Area for this entry: OC[C@H]1O[C@@H](Oc2cc3c(O)cc(O)cc3[o+]c2-c2cc(O)c(O)c(O)c2)[C@H](O)[C@@H](O)[C@@H]1O [Dp-3O-Glc, Delphinidin 3-o-glucoside]
[out] 969.6

[in] Tell me measured Peak Area for C[C@@H]1O[C@@H](OC[C@H]2O[C@@H](Oc3cc4c(O)cc(O)cc4[o+]c3-c3cc(O)c(O)c(O)c3)[C@H](O)[C@@H](O)[C@@H]2O)[C@H](O)[C@H](O)[C@H]1O [Dp-3-O-Rut, Delphinidin-3-O-rutinoside] please.
[out] 3604.2

====

experiment summary: Example 3: stability of black currant extract anthocyanosides, 4 hours at 37° C., pH 7.0, with/without DHLA, GSH or L-cysteine (HPLC)
Assay type: physicochemical
recorded conditions: pH 7.0, 37° C., 4 hours
measured quantity: % left, L-cysteine 20 mg
Quote the value and follow it with the unit of measurement.

Consider the reported % left, L-cysteine 20 mg for these compounds:
OC[C@H]1O[C@@H](Oc2cc3c(O)cc(O)cc3[o+]c2-c2cc(O)c(O)c(O)c2)[C@H](O)[C@@H](O)[C@@H]1O [Dp-3O-Glc, Delphinidin 3-o-glucoside] | 36.7%
OC[C@H]1O[C@@H](Oc2cc3c(O)cc(O)cc3[o+]c2-c2ccc(O)c(O)c2)[C@H](O)[C@@H](O)[C@@H]1O [Cn-3O-Glc, Cyanidin 3-o-glucoside] | 38.0%
C[C@@H]1O[C@@H](OC[C@H]2O[C@@H](Oc3cc4c(O)cc(O)cc4[o+]c3-c3cc(O)c(O)c(O)c3)[C@H](O)[C@@H](O)[C@@H]2O)[C@H](O)[C@H](O)[C@H]1O [Dp-3-O-Rut, Delphinidin-3-O-rutinoside] | 38.0%

Next, consider the following compound.
[in] Tell me measured % left, L-cysteine 20 mg for C[C@@H]1O[C@@H](OC[C@H]2O[C@@H](Oc3cc4c(O)cc(O)cc4[o+]c3-c3ccc(O)c(O)c3)[C@H](O)[C@@H](O)[C@@H]2O)[C@H](O)[C@H](O)[C@H]1O [Cn-3-O-Rut, Cyanidin-3-O-rutinoside] please.
[out] 38.9%

====

Each entry below lists one item and its recorded % left, GSH (4 hours) value.
experiment summary: Example 1: stability of bilberry extract anthocyanosides, 4 hours at 37° C., pH 7.0, with/without DHLA or GSH (HPLC)
Format: physicochemical
recorded conditions: 20 mg reduced L-glutathione, pH 7.0, 37° C., 4 hours
Please reply with the bare figure in % and do not write the unit itself.

Some solved cases for reference:
COc1cc(-c2[o+]c3cc(O)cc(O)c3cc2OC2OC(CO)C(O)C(O)C2O)cc(O)c1O (centres unmarked) [Pt-3O-Gal, Petunidin 3-o-galactoside] | 69.3
COc1cc(-c2[o+]c3cc(O)cc(O)c3cc2O[C@@H]2OC[C@H](O)[C@H](O)[C@H]2O)cc(O)c1O.[Cl-] [Pt-3O-Ara, Petunidin 3-o-arabinoside] | 69.4
COc1cc(-c2[o+]c3cc(O)cc(O)c3cc2O[C@@H]2O[C@H](CO)[C@@H](O)[C@H](O)[C@H]2O)ccc1O [Pe-3O-Glc, Peonidin 3-o-glucoside] | 76.9

[in] Recall and state the measured % left, GSH (4 hours) for OC[C@H]1O[C@@H](Oc2cc3c(O)cc(O)cc3[o+]c2-c2cc(O)c(O)c(O)c2)[C@H](O)[C@@H](O)[C@@H]1O [Dp-3O-Glc, Delphinidin 3-o-glucoside] .
[out] 48.3

[in] Indicate the recorded % left, GSH (4 hours) value for this compound: OC[C@H]1O[C@@H](Oc2cc3c(O)cc(O)cc3[o+]c2-c2cc(O)c(O)c(O)c2)[C@H](O)[C@@H](O)[C@H]1O [Dp-3O-Gal, Delphinidin 3-o-galactoside]
[out] 50.6

====

experiment summary: Example 9: stability of bilberry extract anthocyanosides, 4 hours at 37° C., pH 7.0, with/without L-cysteine
Assay type: physicochemical
recorded conditions: unprotected, pH 7.0, 37° C., 4 hours
measured quantity: Peak Area, Blank

Previously resolved entries follow.
OC[C@H]1O[C@@H](Oc2cc3c(O)cc(O)cc3[o+]c2-c2ccc(O)c(O)c2)[C@H](O)[C@@H](O)[C@H]1O [Cn-3O-Gal, Cyanidin-3-O-galactoside] | 191.1
OC[C@H]1O[C@@H](Oc2cc3c(O)cc(O)cc3[o+]c2-c2cc(O)c(O)c(O)c2)[C@H](O)[C@@H](O)[C@@H]1O [Dp-3O-Glc, Delphinidin 3-o-glucoside] | 46.3
OC[C@H]1O[C@@H](Oc2cc3c(O)cc(O)cc3[o+]c2-c2ccc(O)c(O)c2)[C@H](O)[C@@H](O)[C@@H]1O [Cn-3O-Glc, Cyanidin 3-o-glucoside] | 410.3

We next turn to a different compound, shown below.
[in] Indicate the recorded Peak Area, Blank value for this compound: OC[C@H]1O[C@@H](Oc2cc3c(O)cc(O)cc3[o+]c2-c2cc(O)c(O)c(O)c2)[C@H](O)[C@@H](O)[C@H]1O [Dp-3O-Gal, Delphinidin 3-o-galactoside]
[out] 50.9

====

experiment summary: Example 5: degradation over time of black currant anthocyanosides at 37° C., pH 7.0, with/without GSH (HPLC)
Format: physicochemical
recorded conditions: Blank sample, pH 7.0, 37° C., 3:15 h
Peak Area by entry:

Below are worked cases with known answers.
C[C@@H]1O[C@@H](OC[C@H]2O[C@@H](Oc3cc4c(O)cc(O)cc4[o+]c3-c3ccc(O)c(O)c3)[C@H](O)[C@@H](O)[C@@H]2O)[C@H](O)[C@H](O)[C@H]1O [Cn-3-O-Rut, Cyanidin-3-O-rutinoside] | 1531.6
OC[C@H]1O[C@@H](Oc2cc3c(O)cc(O)cc3[o+]c2-c2cc(O)c(O)c(O)c2)[C@H](O)[C@@H](O)[C@@H]1O [Dp-3O-Glc, Delphinidin 3-o-glucoside] | 285.1

[in] Dear colleague, please send me the reported Peak Area for OC[C@H]1O[C@@H](Oc2cc3c(O)cc(O)cc3[o+]c2-c2ccc(O)c(O)c2)[C@H](O)[C@@H](O)[C@@H]1O [Cn-3O-Glc, Cyanidin 3-o-glucoside] when you can.
[out] 204.9

[in] For C[C@@H]1O[C@@H](OC[C@H]2O[C@@H](Oc3cc4c(O)cc(O)cc4[o+]c3-c3cc(O)c(O)c(O)c3)[C@H](O)[C@@H](O)[C@@H]2O)[C@H](O)[C@H](O)[C@H]1O [Dp-3-O-Rut, Delphinidin-3-O-rutinoside] , write its Peak Area.
[out] 1166.0
